Target: T1, ILT2 mutant 2 (human, UniProt Q8NHL6 24-650)
T1 construct: transfected in HEK293T cells; also called M2
T1 sequence (Q8NHL6 other isoform, or with tags, fused parts or gaps mutant): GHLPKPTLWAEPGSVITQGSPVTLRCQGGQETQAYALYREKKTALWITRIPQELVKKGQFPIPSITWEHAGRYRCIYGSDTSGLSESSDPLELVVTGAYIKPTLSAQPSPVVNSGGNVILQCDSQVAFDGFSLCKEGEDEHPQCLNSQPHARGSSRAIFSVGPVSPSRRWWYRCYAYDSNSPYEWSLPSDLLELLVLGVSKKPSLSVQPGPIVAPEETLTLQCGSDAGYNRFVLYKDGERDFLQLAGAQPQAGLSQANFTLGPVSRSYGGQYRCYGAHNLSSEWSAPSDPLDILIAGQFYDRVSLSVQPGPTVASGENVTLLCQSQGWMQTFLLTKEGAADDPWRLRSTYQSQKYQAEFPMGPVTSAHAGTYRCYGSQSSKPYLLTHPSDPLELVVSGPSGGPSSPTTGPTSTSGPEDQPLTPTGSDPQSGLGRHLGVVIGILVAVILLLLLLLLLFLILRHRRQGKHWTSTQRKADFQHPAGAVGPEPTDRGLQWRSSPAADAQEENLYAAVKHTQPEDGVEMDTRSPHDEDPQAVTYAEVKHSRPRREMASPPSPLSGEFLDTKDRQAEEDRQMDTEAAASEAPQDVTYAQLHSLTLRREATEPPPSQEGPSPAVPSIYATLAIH
Experiment: flow cytometry, ILT2 point mutants

# binder, binding result
measured = [
    ("3E7B (antibody, human IgG1, V domains shown) VH: QVQLKQSGPELVKPGASVKISCKASGYSFTNYYIHWVKQRPGQGLEWIGWIFPGSGETNFNEKFKGKATLTADTSSSTAYMQFSSLTSEDSAVYFCARTWNYDARWGYWGQGTTVTVSS VL: EIQMTQSPASLAVSLGQRATISCRASEGIDSYGISFMHWYQQKPGQPPTLLIYRASNLVSGIPARFSGSGSRTDFTLTINPVEADDVATYYCQQTNEDPFTFGSGTKLEIK", "no binding"),
    ("6C6 (antibody, human IgG1, V domains shown) VH: EVQLQQSGPELVKPGASVKISCKASGYSFTNFYIHWVKQRPGQGLDWIGWIFPGSGETNYNERFKGKATLTSDTSSSTAYMQLSSLTSEDSAVYFCARSWNYDARWGYWGQGTTLTVSS VL: QIVLTQTPASLAVSLGQRATISCRASESIDSYGISFMHWYQQKPGQPPKLLIYRASNLESGIPARFSGSGSRPDFTLTINPVEADDVATYYCQQSNEDPFTFGSGTKLEIK", "no binding"),
]
